- method summary: recombinant UMI read abundance after kanamycin selection (control-corrected) (log10(CPM+1)); higher = more efficient recombination; extreme values may be limits of the assay; sequences stand for … in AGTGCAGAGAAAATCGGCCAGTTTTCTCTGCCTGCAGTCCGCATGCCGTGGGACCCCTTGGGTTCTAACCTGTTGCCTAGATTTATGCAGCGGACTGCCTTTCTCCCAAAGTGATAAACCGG…AGGTTGGTTTCACT; site = the 11-nt donor
// label = yes (1) if recombinant UMI read abundance (log10) is not less than 0.01, otherwise no (0)

Exam item: decide whether the reported recombinant UMI read abundance (log10) for TCTTTGGCATGGACCGGTTTTCCCGGTAATCCGTATTTGTG (site TGTTTGGCTCA) is at least 0.01.
yes (1)

Exam item: decide whether the reported recombinant UMI read abundance (log10) for GGAGGCGCATGGACCGGTTTTCCCGGTAATCCGTATTTGCC (site GGAGGCGCTGG) is at least 0.01.
yes (1)

Exam item: decide whether the reported recombinant UMI read abundance (log10) for GATTAGACATGGACCGGTTTTCCCGGTAATCCGTATTTGAC (site GATTGGACTGT) is at least 0.01.
no (0)

Exam item: decide whether the reported recombinant UMI read abundance (log10) for ACTAGTTCATGGACCGGTTTTCCCGGTAATCCGTATTTGGT (site ACTAGTTCTAC) is at least 0.01.
yes (1)

Exam item: decide whether the reported recombinant UMI read abundance (log10) for TAGTGTTCATGGACCGGTTTTCCCGGTAATCCGTATTTGCA (site TAGTGTTCTTG) is at least 0.01.
yes (1)

Exam item: decide whether the reported recombinant UMI read abundance (log10) for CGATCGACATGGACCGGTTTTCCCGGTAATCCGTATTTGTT (site CGAGCGACTAA) is at least 0.01.
no (0)

Exam item: decide whether the reported recombinant UMI read abundance (log10) for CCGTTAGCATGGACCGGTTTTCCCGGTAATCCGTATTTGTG (site CCGCTAGCTCA) is at least 0.01.
no (0)

Exam item: decide whether the reported recombinant UMI read abundance (log10) for ACCTAGACATGGACCGGTTTTCCCGGTAATCCGTATTTGGT (site ACCTAGACTGC) is at least 0.01.
no (0)

---

- method summary: recombinant barcode read abundance after kanamycin selection (control-corrected) (log10(CPM+1)); higher = more efficient recombination; sequences stand for … in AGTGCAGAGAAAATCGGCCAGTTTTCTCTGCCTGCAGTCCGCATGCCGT…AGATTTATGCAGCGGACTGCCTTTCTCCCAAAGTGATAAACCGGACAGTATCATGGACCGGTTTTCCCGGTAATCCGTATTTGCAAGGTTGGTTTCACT; site = the 11-nt target
Exercise: for every item that follows, state its recorded recombinant barcode read abundance (log10).
Quick one: just the number, no unit, thanks!

// recombinant barcode read abundance (log10) lookup, key: CGGCTCACTTGGGTTCTAACCTGTTGCTA (site CGGCTCACTTA)
2.31

// recombinant barcode read abundance (log10) lookup, key: GAGTATTCTTGGGTTCTAACCTGTTGCCT (site GATTATTCTAG)
0.123

// recombinant barcode read abundance (log10) lookup, key: CTCTGGGCTTGGGTTCTAACCTGTTGCCT (site CTCTAGGCTAG)
0.179

// recombinant barcode read abundance (log10) lookup, key: CACACGTCTTGGGTTCTAACCTGTTGCCT (site CACACGACTAG)
0.103

// recombinant barcode read abundance (log10) lookup, key: GCAAGGTCTTGGGTTCTAACCTGTTGCTA (site GCAAGGTCTTA)
1.98

// recombinant barcode read abundance (log10) lookup, key: ATATCTTCTTGGGTTCTAACCTGTTGCCT (site ATTTCTTCTAG)
0.578

// recombinant barcode read abundance (log10) lookup, key: CTACCTCCTTGGGTTCTAACCTGTTGCGT (site CTACCTCCTAC)
1.16

// recombinant barcode read abundance (log10) lookup, key: GCGGAAGCTTGGGTTCTAACCTGTTGCCT (site GCGGAAGCTAG)
0.312

// recombinant barcode read abundance (log10) lookup, key: TATACAGCTTGGGTTCTAACCTGTTGCCT (site TAGACAGCTAG)
0.0546

// recombinant barcode read abundance (log10) lookup, key: GGACGGACTTGGGTTCTAACCTGTTGCCA (site GGTCGGACTTG)
0.417

// recombinant barcode read abundance (log10) lookup, key: TCGGGATCTTGGGTTCTAACCTGTTGCCT (site CCGGGATCTAG)
0.184

// recombinant barcode read abundance (log10) lookup, key: GCATGTCCTTGGGTTCTAACCTGTTGCAT (site GAATGTCCTAT)
0.128

// recombinant barcode read abundance (log10) lookup, key: TTAGATCCTTGGGTTCTAACCTGTTGCAT (site TTAGGTCCTCT)
0.00789

// recombinant barcode read abundance (log10) lookup, key: ATATGATCTTGGGTTCTAACCTGTTGCCT (site ATATGATCTAG)
1.43

// recombinant barcode read abundance (log10) lookup, key: AATAGAGCTTGGGTTCTAACCTGTTGCAG (site AATAGAGCTCT)
2.23

// recombinant barcode read abundance (log10) lookup, key: CCATGAACTTGGGTTCTAACCTGTTGCCA (site CCATGAACTTG)
0.0609

// recombinant barcode read abundance (log10) lookup, key: CTAAGCGCTTGGGTTCTAACCTGTTGCCT (site AGTCAGACTGT)
0.463

// recombinant barcode read abundance (log10) lookup, key: CTAACCTCTTGGGTTCTAACCTGTTGCTC (site CTAACCTCTAA)
0.0754

// recombinant barcode read abundance (log10) lookup, key: CCTACAACTTGGGTTCTAACCTGTTGCCT (site CCTACAACTAG)
0.313

// recombinant barcode read abundance (log10) lookup, key: CTGAGCCCTTGGGTTCTAACCTGTTGCTG (site CAGAGCCCTCA)
0.327

// recombinant barcode read abundance (log10) lookup, key: CTGTCTCCTTGGGTTCTAACCTGTTGCGT (site CTGTCTCCTAC)
0.833

// recombinant barcode read abundance (log10) lookup, key: GGGACGCCTTGGGTTCTAACCTGTTGCAT (site GGGACGCCTAT)
1.17

// recombinant barcode read abundance (log10) lookup, key: TCTGGAGCTTGGGTTCTAACCTGTTGCAG (site CCAGGAGCTCT)
0.0636

// recombinant barcode read abundance (log10) lookup, key: TCTGGGGCTTGGGTTCTAACCTGTTGCTG (site TCTGGGGCTCT)
0.936

// recombinant barcode read abundance (log10) lookup, key: CTCCCATCTTGGGTTCTAACCTGTTGCGT (site CTCCGATCTCC)
0.165

// recombinant barcode read abundance (log10) lookup, key: GGGACAGCTTGGGTTCTAACCTGTTGCCT (site GGGACAGCTAG)
1.12

// recombinant barcode read abundance (log10) lookup, key: CTAGACCCTTGGGTTCTAACCTGTTGCCT (site CTAGACCCTAG)
1.95

// recombinant barcode read abundance (log10) lookup, key: TCGCCTTCTTGGGTTCTAACCTGTTGCCT (site TAGCCTTCTAG)
0.482

// recombinant barcode read abundance (log10) lookup, key: GGACTCACTTGGGTTCTAACCTGTTGCCT (site GGATTCTCTAG)
0.15

// recombinant barcode read abundance (log10) lookup, key: CTCATTCCTTGGGTTCTAACCTGTTGCCT (site CTCATTCCTAT)
0.0571

---

- method summary: recombinant UMI read abundance after kanamycin selection (control-corrected) (log10(CPM+1)); higher = more efficient recombination; extreme values may be limits of the assay; sequences stand for … in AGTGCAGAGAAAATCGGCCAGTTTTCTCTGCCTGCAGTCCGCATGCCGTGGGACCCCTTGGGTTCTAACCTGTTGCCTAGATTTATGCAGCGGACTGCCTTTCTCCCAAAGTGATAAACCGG…AGGTTGGTTTCACT; site = the 11-nt donor
Exercise: for every item that follows, state its recorded recombinant UMI read abundance (log10).
Quick one: just the number, no unit, thanks!

// recombinant UMI read abundance (log10) lookup, key: TTTGAATCATGGACCGGTTTTCCCGGTAATCCGTATTTGAC (site TTTGAATCTGT)
0

// recombinant UMI read abundance (log10) lookup, key: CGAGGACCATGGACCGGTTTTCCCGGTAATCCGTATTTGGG (site CGGGGACCTCC)
0

// recombinant UMI read abundance (log10) lookup, key: CAACCAGCATGGACCGGTTTTCCCGGTAATCCGTATTTGCT (site CAATCAGCTAG)
0

// recombinant UMI read abundance (log10) lookup, key: CAATCAACATGGACCGGTTTTCCCGGTAATCCGTATTTGTG (site CAATCAACTCA)
0.737

// recombinant UMI read abundance (log10) lookup, key: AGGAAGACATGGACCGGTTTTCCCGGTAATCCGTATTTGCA (site GGGAATACTTG)
0

// recombinant UMI read abundance (log10) lookup, key: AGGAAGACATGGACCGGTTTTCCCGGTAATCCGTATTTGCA (site AGGGAGACTTA)
0.00967

// recombinant UMI read abundance (log10) lookup, key: GTAGGTACATGGACCGGTTTTCCCGGTAATCCGTATTTGAC (site GTGGGTACTGT)
2.19

// recombinant UMI read abundance (log10) lookup, key: ACGTTAGCATGGACCGGTTTTCCCGGTAATCCGTATTTGTG (site TCGTTAGCTCA)
0.526

Taken from the supplement of paper PMC11208160.
